Reported values: Ki for Adrenergic beta2 (Homo sapiens, UniProt P07550), one per item.

1) CCN(CCCNC(=O)c1cc2ccccc2n1C)CCNC(=O)c1cc(Br)cc(OC)c1OC [21j] | > 10000 nM
2) CCN(CCCNC(=O)c1ccc(-c2ccsc2)cc1)CCNC(=O)c1cc(Br)cc(OC)c1OC [21g] | 616 nM
3) CCCN(CCCNC(=O)c1ccc(-c2cccs2)cc1)CCNC(=O)c1cc(Br)cc(OC)c1OC [20a] | 5830 nM

Request: What value of Ki on Adrenergic beta2 (Homo sapiens, UniProt P07550) does CCN(CCCNC(=O)c1ccc(-c2cccs2)cc1)CCNC(=O)c1cc(Br)cc(OC)c1OC have?
Result: 669 nM

These data points were gathered from paper PMC9820167.
